- Measured target: CDK8/CycC (Homo sapiens, UniProt P49336)
- Construct: purchased Carna Biosciences
- Sequence (P49336 whole entry): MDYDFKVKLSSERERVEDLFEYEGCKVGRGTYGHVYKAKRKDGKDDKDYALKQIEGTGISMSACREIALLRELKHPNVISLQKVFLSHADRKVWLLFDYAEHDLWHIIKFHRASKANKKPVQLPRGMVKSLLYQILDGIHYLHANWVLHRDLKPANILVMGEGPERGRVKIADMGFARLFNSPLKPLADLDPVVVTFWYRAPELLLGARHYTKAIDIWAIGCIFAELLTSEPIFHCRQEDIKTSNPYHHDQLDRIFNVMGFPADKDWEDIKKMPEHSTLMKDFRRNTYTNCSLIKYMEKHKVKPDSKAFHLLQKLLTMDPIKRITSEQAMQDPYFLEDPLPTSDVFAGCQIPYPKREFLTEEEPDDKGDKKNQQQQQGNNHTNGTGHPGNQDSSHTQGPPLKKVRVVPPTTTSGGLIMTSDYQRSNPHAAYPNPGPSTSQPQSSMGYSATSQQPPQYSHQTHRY
- Sequence (P24863 whole entry partner): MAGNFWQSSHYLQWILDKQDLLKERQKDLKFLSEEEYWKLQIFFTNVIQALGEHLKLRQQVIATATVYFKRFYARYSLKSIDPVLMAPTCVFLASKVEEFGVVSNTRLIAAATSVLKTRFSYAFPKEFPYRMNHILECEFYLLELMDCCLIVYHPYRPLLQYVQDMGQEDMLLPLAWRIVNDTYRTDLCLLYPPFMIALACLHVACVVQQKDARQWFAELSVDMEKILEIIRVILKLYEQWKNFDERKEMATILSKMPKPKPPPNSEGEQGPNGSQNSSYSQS
- Assay: CDK8 inhibitory activity (TR-FRET, Kinase Tracer-236 displacement)
- Format: binding
- Cond: 1 μM of the test compound; read-out: Percent inhibition of CDK8 activity (%)

| Compound | Display unit | inhibition at 1 µM |
| --- | --- | --- |
| O=C(/C=C/c1cnccc1-c1ccc2[nH]ncc2c1)Nc1ccc(CN2CCOCC2)cc1 | % | 96 |
| O=C(/C=C/c1cnccc1-c1cnn(C2CC2)c1)Nc1ccc2c(c1)CN(CC(F)(F)CO)C2 | % | 102 |
| Cn1cc(-c2ccncc2/C=C/C(=O)Nc2ccc3c(c2)CCO3)cn1 | % | 96 |
| COCCOc1ccc(NC(=O)/C=C/c2cnccc2-c2cnn(C)c2)cc1 | % | 98 |
| Cn1cc(-c2ccncc2/C=C/C(=O)Nc2ccc(CN3CC4CCC(C3)O4)cc2)cn1 | % | 96 |
| Cn1cc(-c2ccncc2/C=C/C(=O)Nc2ccc(CN3CC4CC3CO4)cc2)cn1 (centres unmarked) | % | 100 |
| O=C(/C=C/c1cnccc1-c1ccc2[nH]cnc2c1)Nc1ccc(CN2CCOCC2)cc1 | % | 99 |
| O=C(/C=C/c1cnccc1-c1cnn(C2CC2)c1)Nc1ccc2c(ccn2CC(F)(F)F)c1 | % | 99 |

----------
- Measured target: CDK19 (CDC2L6/CycC) (Homo sapiens, UniProt Q9BWU1)
- Construct: purchased Carna Biosciences
- Sequence (Q9BWU1 whole entry): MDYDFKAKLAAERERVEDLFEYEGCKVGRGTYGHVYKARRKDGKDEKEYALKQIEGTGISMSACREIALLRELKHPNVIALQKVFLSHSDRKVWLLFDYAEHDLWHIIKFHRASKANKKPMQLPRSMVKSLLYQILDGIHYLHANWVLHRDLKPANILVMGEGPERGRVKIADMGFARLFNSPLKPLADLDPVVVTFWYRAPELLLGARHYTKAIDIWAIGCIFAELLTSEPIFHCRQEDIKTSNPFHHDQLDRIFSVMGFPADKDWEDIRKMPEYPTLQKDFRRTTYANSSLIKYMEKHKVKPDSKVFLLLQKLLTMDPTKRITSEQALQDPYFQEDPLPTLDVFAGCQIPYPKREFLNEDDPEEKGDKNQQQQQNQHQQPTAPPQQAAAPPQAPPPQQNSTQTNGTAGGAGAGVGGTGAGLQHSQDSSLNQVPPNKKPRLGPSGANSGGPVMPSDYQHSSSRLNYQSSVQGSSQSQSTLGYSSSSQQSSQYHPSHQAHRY
- Sequence (P24863 whole entry partner): as the sequence (P24863 whole entry partner) above
- Assay: CDK19 inhibitory activity (TR-FRET, Kinase Tracer-236 displacement)
- Format: binding
- Cond: 1 μM of the test compound; read-out: Percent inhibition of CDK19 activity (%)

| Compound | inhibition at 1 µM / % |
| --- | --- |
| Cn1cc(-c2ccncc2/C=C/C(=O)Nc2ccc3cnccc3c2)cn1 [Example 154] | 99 |
| COC(C)c1ccc(NC(=O)/C=C/c2cnccc2-c2cnn(C3CC3)c2)cc1 (centres unmarked) [Example 271] | 93 |
| Cn1cc(-c2c(F)cncc2/C=C/C(=O)Nc2ccc3c(c2)CN(CC(F)(F)F)C3)cn1 [Example 327] | 104 |
| Cn1cc(-c2ccncc2/C=C/C(=O)Nc2ccc3cc[nH]c3c2)cn1 [Example 155] | 93 |
| Cn1cc(-c2ccncc2/C=C/C(=O)Nc2ccc(CN3CCOCC3)c(C#N)c2)cn1 [Example 150] | 99 |
| O=C(/C=C/c1cncc(F)c1-c1cnn(C2CC2)c1)Nc1ccc(CN2CCOCC2)cc1F [Example 273] | 96 |
| O=C(/C=C/c1cnccc1-c1cnn(Cc2ccccc2)c1)Nc1ccc(CN2CCOCC2)cc1 [Example 93] | 101 |
| Cn1cc(-c2ccncc2/C=C/C(=O)Nc2ccc3c(c2)OCO3)cn1 [Example 163] | 94 |

----------
Parameter inhibition at 1 µM: see the listing below.
- Measured target: CDK8/CycC (Homo sapiens, UniProt P49336)
- Construct: purchased Carna Biosciences
- Assay: CDK8 inhibitory activity (TR-FRET, Kinase Tracer-236 displacement)
- Type: binding
- Cond: 1 μM of the test compound; read-out: Percent inhibition of CDK8 activity (%)
Readout: inhibition at 1 µM (%)

| Compound structure | Value |
| --- | --- |
| CC(C)(F)Cc1ccc(NC(=O)/C=C/c2cncc(F)c2-c2cnn(C3CC3)c2)cc1 | 99 |
| O=C(/C=C/c1cnccc1-c1cnn(C2CC2)c1)Nc1ccc(COC(F)F)cc1 | 97 |
| Cn1cc(-c2ccncc2/C=C/C(=O)Nc2ccc3cnccc3c2)cn1 | 96 |
| Cn1ccc2cc(NC(=O)/C=C/c3cnccc3-c3cnn(C4CC4)c3)ccc21 | 100 |

----------
- Measured target: CDK19 (CDC2L6/CycC) (Homo sapiens, UniProt Q9BWU1)
- Construct: purchased Carna Biosciences
- Assay: CDK19 inhibitory activity (TR-FRET, Kinase Tracer-236 displacement)
- Assay type: binding
- Cond: 1 μM of the test compound; read-out: Percent inhibition of CDK19 activity (%)
Readout: inhibition at 1 µM (%)

| Molecule | Readout | Value |
| --- | --- | --- |
| CCN1CCc2cc(NC(=O)/C=C/c3cnccc3-c3cnn(C)c3)ccc2C1 | inhibition at 1 µM | 95 |
| CC(c1ccc(NC(=O)/C=C/c2cnccc2-c2cnn(C)c2)cc1)N1CCOCC1 (stereo not shown) | inhibition at 1 µM | 98 |
| CCn1cc(-c2ccncc2/C=C/C(=O)Nc2ccc(CN3CCOCC3)cc2)cn1 | inhibition at 1 µM | 100 |
| Cn1cc(-c2c(F)cncc2/C=C/C(=O)Nc2ccc3c(c2)CN(CC(C)(F)F)C3)cn1 | inhibition at 1 µM | 100 |
| Cn1cc(-c2ccncc2/C=C/C(=O)Nc2ccc(CN3CCOCC3)cc2)cn1 | inhibition at 1 µM | 98 |
| Cn1cc(-c2ccncc2/C=C/C(=O)Nc2ccc(CN3CC4CCC(C3)O4)cc2)cn1 | inhibition at 1 µM | 97 |
| Cn1cc(-c2ccncc2/C=C/C(=O)Nc2ccc(CC#N)cc2)cn1 | inhibition at 1 µM | 95 |
| CC1CN(Cc2ccc(NC(=O)/C=C/c3cnccc3-c3cnn(C4CC4)c3)cc2)C1 | inhibition at 1 µM | 97 |
| Cn1cc(-c2ccncc2/C=C/C(=O)Nc2ccc(CN3CCOCC3)c(Cl)c2)cn1 | inhibition at 1 µM | 99 |
| Cc1cc(NC(=O)/C=C/c2cnccc2-c2cnn(C3CC3)c2)ccc1CN1CCOCC1 | inhibition at 1 µM | 99 |
| Cn1cc(-c2ccncc2/C=C/C(=O)Nc2ccc3c(c2)CN(CC(F)(F)F)C3)cn1 | inhibition at 1 µM | 102 |
| Cn1cc(-c2ccncc2/C=C/C(=O)Nc2ccc3c(c2)OCCO3)cn1 | inhibition at 1 µM | 97 |
| Cn1ccc2cc(NC(=O)/C=C/c3cnccc3-c3cnn(C4CC4)c3)ccc21 | inhibition at 1 µM | 97 |
| COc1ncc(-c2ccncc2/C=C/C(=O)Nc2ccc(CN3CCOCC3)cc2)s1 | inhibition at 1 µM | 98 |
| O=C(/C=C/c1cnccc1-c1cnn(C2CC2)c1)Nc1ccc2c(c1)CN(CC(F)(F)C(F)(F)F)CC2 | inhibition at 1 µM | 94 |
| O=C(/C=C/c1cnccc1-c1cnn(C2CCC2)c1)Nc1ccc(CN2CCOCC2)cc1 | inhibition at 1 µM | 96 |
| Cn1cc(-c2ccncc2/C=C/C(=O)Nc2ccc3c(c2)CN(CC(F)F)C3)cn1 | inhibition at 1 µM | 94 |
| Cc1cc(NC(=O)/C=C/c2cnccc2-c2cnn(C)c2)ccc1CN1CCOCC1 | inhibition at 1 µM | 98 |
| Cc1ncc(-c2ccncc2/C=C/C(=O)Nc2ccc(CN3CCOCC3)cc2)s1 | inhibition at 1 µM | 95 |
| O=C(/C=C/c1cnccc1-c1cccs1)Nc1ccc(CCc2nnco2)cc1 | inhibition at 1 µM | 100 |
| O=C(/C=C/c1cncc(F)c1-c1cnn(C2CC2)c1)Nc1ccc2c(c1)OCCO2 | inhibition at 1 µM | 98 |
| Cn1cc(-c2ccncc2/C=C/C(=O)Nc2ccc3c(ccn3C)c2)cn1 | inhibition at 1 µM | 99 |
| Cn1cc(-c2ccncc2/C=C/C(=O)Nc2ccc3ncsc3c2)cn1 | inhibition at 1 µM | 90 |
| Cn1cc(-c2ccncc2/C=C/C(=O)Nc2ccc(CC(C)(C)O)cc2)cn1 | inhibition at 1 µM | 101 |
| Cn1cc(-c2ccncc2/C=C/C(=O)Nc2ccc(CN3CC(F)(F)OC(F)(F)C3)cc2)cn1 | inhibition at 1 µM | 98 |
| Cn1cc(-c2ccncc2/C=C/C(=O)Nc2cc(F)c(CN3CCOCC3)cc2F)cn1 | inhibition at 1 µM | 91 |
| Cn1cc(-c2ccncc2/C=C/C(=O)Nc2ccc(CN3CCOCC3)cc2F)cn1 | inhibition at 1 µM | 97 |
| Cn1cc(-c2ccncc2/C=C/C(=O)Nc2ccc(CNCC(F)(F)C(F)(F)F)cc2)cn1 | inhibition at 1 µM | 99 |
| Cn1cnc2ccc(-c3ccncc3/C=C/C(=O)Nc3ccc(CN4CCOCC4)cc3)cc21 | inhibition at 1 µM | 102 |
| O=C(/C=C/c1cnccc1-c1cn[nH]c1)Nc1ccc(CN2CCOCC2)cc1 | inhibition at 1 µM | 99 |
| Cn1cc(-c2ccncc2/C=C/C(=O)Nc2ccc(CN3CCN4CCCC4C3)cc2)cn1 (stereo not shown) | inhibition at 1 µM | 74 |
| CC(=O)N(C)Cc1cc(NC(=O)/C=C/c2cnccc2-c2cnn(C)c2)ccc1C | inhibition at 1 µM | 93 |
| COCCOc1ccc(NC(=O)/C=C/c2cnccc2-c2cnn(C)c2)cc1 | inhibition at 1 µM | 97 |
| O=C(/C=C/c1cnccc1-c1cnn2ccccc12)Nc1ccc(CN2CCOCC2)cc1 | inhibition at 1 µM | 97 |
